- system.name: T1, His/Avi-CynoIL18BP (recombinant cynomolgus IL-18BP with His and Avi tags) (cynomolgus monkey)
- T1 construct: also called cynomolgus IL-18BP-Avi-His
- T1 chain: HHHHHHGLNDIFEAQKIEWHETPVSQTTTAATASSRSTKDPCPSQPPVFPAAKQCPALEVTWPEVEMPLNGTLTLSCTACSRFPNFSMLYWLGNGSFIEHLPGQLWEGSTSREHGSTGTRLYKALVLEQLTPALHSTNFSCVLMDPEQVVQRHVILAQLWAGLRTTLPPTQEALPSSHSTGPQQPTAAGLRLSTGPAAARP
- protocol.details: SPR Biacore T200, IgG captured on Protein A/G
# koff values compiled below
property.measured: koff (s⁻¹)

1. anti-IL-18BP antibody variant BP-04.24 (antibody, V domains shown) VH: QVQLVQSGAEVKKPGASVKVSCKASGYTFTDYDMHWVRQAPGQGLEWMGIYSTYYGDVSYAQKFQGRVTMTRDKSTSTVYMELSSLRSEDTAVYYCARSGTYYYGTRESHPLDYWGQGTLVTVSS VL: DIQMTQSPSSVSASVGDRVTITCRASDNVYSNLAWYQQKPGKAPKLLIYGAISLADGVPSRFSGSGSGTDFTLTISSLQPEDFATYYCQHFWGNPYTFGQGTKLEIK
0.0059
2. anti-IL-18BP antibody variant BP-04.15 (antibody, V domains shown) VH: QVQLVQSGAEVKKPGASVKVSCKASGYTFTDYDMHWVRQAPGQGLEWMGIISTYYGDVSYAQKFQGRVTMTRDKSTSTVYMELSSLRSEDTAVYYCARSGTYNYGTRESHPLDYWGQGTLVTVSS VL: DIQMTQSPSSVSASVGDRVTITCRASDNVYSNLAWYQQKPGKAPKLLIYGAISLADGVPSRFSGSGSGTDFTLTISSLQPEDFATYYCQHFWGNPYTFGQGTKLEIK
0.004
3. anti-IL-18BP antibody variant BP-04.28 (antibody, V domains shown) VH: QVQLVQSGAEVKKPGASVKVSCKASGYTFTDYDMHWVRQAPGQGLEWMGIISTYYGDVSYAQKFQGRVTMTRDKSTSTVYMELSSLRSEDTAVYYCARSGTYYYGTRESHPLDYWGQGTLVTVSS VL: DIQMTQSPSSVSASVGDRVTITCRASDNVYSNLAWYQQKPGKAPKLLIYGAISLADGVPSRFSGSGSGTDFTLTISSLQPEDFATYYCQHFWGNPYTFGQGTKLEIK
0.0023
4. anti-IL-18BP antibody variant BP-04.29 (antibody, V domains shown) VH: QVQLVQSGAEVKKPGASVKVSCKASGYTFTDYDMHWVRQAPGQGLEWMGIISTYYGDVSYAQKFQGRVTMTRDKSTSTVYMELSSLRSEDTAVYYCARSGTYNYGTRESHALDYWGQGTLVTVSS VL: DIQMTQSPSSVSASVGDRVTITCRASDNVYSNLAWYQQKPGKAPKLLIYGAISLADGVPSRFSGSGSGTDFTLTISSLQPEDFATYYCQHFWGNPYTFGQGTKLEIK
0.011
